Every entry's value here was drawn from ChEMBL document CHEMBL1201862.

Listing of entries alongside the reported GI50.
System: SF-268
Measurement protocol: NCI tumour cell line growth inhibition, 48 h
The source made the active and inactive calls. No stated cut-off is given here; in the data, active = GI50 up to about 1.1 µM and inactive = higher.

Examples with their reported GI50 follow.
Compound	Endpoint value
COc1ccc(C(=CCC(C)C2CCC3[C@@H]4C(OC(C)=O)CC5CC(OC(C)=O)CC[C@]5(C)C4CC(OC(C)=O)[C@]23C)c2ccc(OC)cc2)cc1 (stereo partly specified)	> 100 µM (inactive)
CC1=C(C(=O)Nc2ccccc2C)C(c2ccco2)C(C(=O)Nc2ccccc2C)=C(C)N1C	> 100 µM (inactive)
C#CCOC(=O)C(N)CC(N)=O (stereo unspecified)	> 100 µM (inactive)
CC(=O)OCC1OC(n2c(C)c(C(C)=O)c(-c3cccc4ccccc34)c(C#N)c2=S)C(OC(C)=O)C(OC(C)=O)C1OC(C)=O (stereo unspecified)	> 100 µM (inactive)
CCCCCCCCCCCCCCCCOCC(CP(=O)([O-])OCC[n+]1ccccc1)OC (stereo unspecified)	7.1 µM (inactive)
O=C1C=CC2(C=C1)O[C@H](COCc1ccccc1)[C@@H](COCc1ccccc1)O2	1.64 µM (inactive)
CCC(C(=O)C(=O)OC)P1(=O)OC(C)(C)CN1C(C)(C)C (stereo unspecified)	> 100 µM (inactive)
COc1cc(O)c2c(c1)C(O)C(O)CC1OC1C(=O)/C=C/CC(C)OC2=O (stereo unspecified)	10.4 µM (inactive)
COC(Cc1ccccc1)NC(C)=O (stereo unspecified)	> 100 µM (inactive)
NC(=S)N1N=C2CCCCCC[C@@H]2[C@H]1c1ccccc1	> 100 µM (inactive)

**Query** Look up GI50: O=C(c1ccc(Cl)cc1)N(C(=S)N1CCN(c2ccccn2)CC1)c1ccccc1
**Result** > 100 µM (inactive)

**Query** Try this compound next: Cc1nnc2n1-c1ccccc1C(=S)N1CSCC21 (stereo unspecified)
**Result** > 100 µM (inactive)

**Query** And the next one, OCC(O)COCn1cc(Cn2ncc3c(NCc4ccccc4)ncnc32)nn1 (stereo unspecified) ?
**Result** 17.7 µM (inactive)

**Query** Similarly, O=C(c1ccco1)n1c2ccc(Br)cc2c2nc3ccccc3nc21 ?
**Result** 27 µM (inactive)

**Query** Another: COc1c(O)ccc(/C=N/NC(=S)NCOCCOC(C)=O)c1OC
**Result** > 100 µM (inactive)

**Query** How about this compound: N#CC1CCCCCCCCCCC(=O)N(CCCl)C1=O (stereo unspecified)
**Result** > 100 µM (inactive)

**Query** Item: CC1(Cl)CCC2(CC(Br)=CC3OC32C)CC1Br (stereo unspecified)
**Result** 19.2 µM (inactive)

**Query** Cool, now O=[N+]([O-])c1cccnc1NCC1(CO)CCCC1
**Result** 32.2 µM (inactive)

**Query** Then what about the compound CCN1C[C@]2(C)CC[C@H](OC)C34C1C([C@H](OC(C)=O)[C@@H]32)[C@@]1(OC)C[C@H](OC)[C@H]2C[C@@H]4[C@@H]1[C@H]2O ?
**Result** > 100 µM (inactive)

**Query** Also need CCCCN(CCCC)C(=O)C(=O)C(C)C(=O)CC (stereo unspecified) , thanks.
**Result** > 100 µM (inactive)

**Query** Now this one: c1ccc2c(c1)CCc1cc3cc4c(nc3nc1-2)-c1ccccc1CC4
**Result** 83 µM (inactive)
